Target: human TRPA1 (Homo sapiens, UniProt O75762)
Construct: expressed in transfected cells
Sequence (O75762 whole entry): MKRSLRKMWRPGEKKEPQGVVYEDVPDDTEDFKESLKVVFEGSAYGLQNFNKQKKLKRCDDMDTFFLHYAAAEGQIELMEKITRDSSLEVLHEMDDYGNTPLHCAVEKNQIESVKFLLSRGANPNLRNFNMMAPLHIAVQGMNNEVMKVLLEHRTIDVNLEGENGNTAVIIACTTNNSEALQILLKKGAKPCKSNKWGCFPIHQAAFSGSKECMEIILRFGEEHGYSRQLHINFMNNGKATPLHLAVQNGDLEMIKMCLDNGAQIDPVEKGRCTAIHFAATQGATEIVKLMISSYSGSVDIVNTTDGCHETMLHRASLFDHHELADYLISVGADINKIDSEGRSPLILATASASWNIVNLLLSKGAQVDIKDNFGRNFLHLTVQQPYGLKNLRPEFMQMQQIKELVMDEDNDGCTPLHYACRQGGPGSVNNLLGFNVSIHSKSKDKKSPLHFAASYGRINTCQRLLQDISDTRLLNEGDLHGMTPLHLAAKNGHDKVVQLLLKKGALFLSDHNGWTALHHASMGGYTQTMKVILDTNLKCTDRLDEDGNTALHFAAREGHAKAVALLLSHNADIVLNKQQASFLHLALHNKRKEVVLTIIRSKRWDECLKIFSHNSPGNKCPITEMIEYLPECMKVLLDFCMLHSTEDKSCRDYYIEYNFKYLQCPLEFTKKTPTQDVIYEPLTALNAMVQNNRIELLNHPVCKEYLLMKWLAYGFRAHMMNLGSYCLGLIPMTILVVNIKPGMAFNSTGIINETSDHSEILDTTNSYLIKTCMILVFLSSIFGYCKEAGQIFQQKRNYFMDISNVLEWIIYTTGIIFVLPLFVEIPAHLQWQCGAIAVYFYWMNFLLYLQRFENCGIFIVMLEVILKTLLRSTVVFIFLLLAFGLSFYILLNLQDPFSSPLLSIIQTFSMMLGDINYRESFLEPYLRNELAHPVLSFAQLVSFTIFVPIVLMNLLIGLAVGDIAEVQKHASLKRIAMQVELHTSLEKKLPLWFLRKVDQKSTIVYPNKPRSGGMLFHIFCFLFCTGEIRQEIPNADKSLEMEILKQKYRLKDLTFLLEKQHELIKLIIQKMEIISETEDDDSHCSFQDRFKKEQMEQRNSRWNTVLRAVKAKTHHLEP
Test: Cell-based functional intracellular calcium ([Ca2+]i) assay, Fluo-4/Fluo-8, FlexStation, challenge with reference TRPA1 agonist (FFA, AITC or 4-HNE)
Endpoint Name: IC50

Some entries whose results are on file:
- Molecule: "O=C(c1cc(-c2ccncc2)n(-c2ccc(C(F)(F)F)c(F)c2)n1)N1CCC(N2C(=O)Cc3ccccc32)CC1 [Compound 98]"
  Observed Measurement: "5 to 25 µM"
- Molecule: "O=C(c1cc(-c2cccnc2)n(-c2ccc(F)c(C(F)(F)F)c2)n1)N1C2CCC1CC1(C2)C(=O)NCN1c1ccc(F)cc1 (stereo not shown) [Compound 333]"
  Observed Measurement: "0.001 to 5 µM"
- Molecule: "CC1COC2(CCN(C(=O)c3cc(-c4ccncc4)n(-c4ccc(C(F)(F)F)c(F)c4)n3)CC2)O1 (stereo not shown) [Compound 114]"
  Observed Measurement: "> 25 µM"

# value lookup — system human TRPA1 (Homo sapiens, UniProt O75762), readout IC50, item CCCC1COC2(CCN(C(=O)c3cc(-c4ccncc4)n(-c4ccc(F)c(F)c4)n3)CC2)O1 (stereo not shown) [Compound 96]
> 25 µM

###

Molecular target: human TRPA1 (Homo sapiens, UniProt O75762)
Construct: expressed in transfected cells
Assay: Cell-based functional intracellular calcium ([Ca2+]i) assay, Fluo-4/Fluo-8, FlexStation, challenge with reference TRPA1 agonist (FFA, AITC or 4-HNE)
Details: HEK293 cells expressing human TRPA1; IC50 class after addition of reference TRPA1 agonist (FFA, AITC or 4-HNE); read-out: human TRPA1-HEK Activity
pIC50: −log10 of the molar value.
Endpoint Name: pIC50

Take a look at these entries with their results.
- Compound: "O=C(Nc1nc(-c2ccc(C(F)(F)F)cc2)cs1)c1cc(-c2ccncc2)n(-c2ccccc2)n1"
  Assay Target: "human TRPA1 (Homo sapiens, UniProt O75762)"
  pIC50: "< 4.60"
- Compound: "O=C(c1cc(-c2ccncc2)n(-c2ccc(C(F)(F)F)cc2)n1)N1CC(=O)N2CCc3ccccc3C2C1 (stereo not drawn)"
  Assay Target: "human TRPA1 (Homo sapiens, UniProt O75762)"
  pIC50: "4.60 to 5.30"
- Compound: "O=C(c1cc(-c2ccncc2)n(-c2ccc(C(F)(F)F)cc2)n1)N1CCC2(CC1)NCN(c1ccccc1)C2=O"
  Assay Target: "human TRPA1 (Homo sapiens, UniProt O75762)"
  pIC50: "< 4.60"
- Compound: "O=C(c1cc(-c2ccncc2)n(-c2ccc(C(F)(F)F)nc2)n1)N1CCC2(CC1)C(=O)NCN2c1ccccc1"
  Assay Target: "human TRPA1 (Homo sapiens, UniProt O75762)"
  pIC50: "4.60 to 5.30"
- Compound: "O=C(c1cc(-c2ccnnc2)n(-c2ccc(C(F)(F)F)c(F)c2)n1)N1CCC2(CC1)C(=O)NCN2c1ccc(F)cc1"
  Assay Target: "human TRPA1 (Homo sapiens, UniProt O75762)"
  pIC50: "5.30 to 9.00"

# batch: return pIC50 for each of the 4 compounds below
1. O=C(c1cc(-c2ccncc2)n(-c2cc(F)c(F)c(F)c2)n1)N1CCC(n2c(=O)[nH]c3cc(C(F)(F)F)ccc32)CC1
2. O=C(c1cc(-c2ccncc2)n(-c2ccc(C(F)(F)F)c(F)c2)n1)N1CCC(c2nc3ccccc3o2)CC1
3. O=C(c1cc(-c2ccncc2)n(-c2ccc(C(F)(F)F)cc2)n1)N1CCN2C(=O)OC[C@@H]2C1
4. O=C(c1cc(-c2cccnc2)n(-c2ccc(F)c(C(F)(F)F)c2)n1)N1CCC(n2c(=S)[nH]c3ccc(F)c(F)c32)CC1

["4.60 to 5.30", "< 4.60", "4.60 to 5.30", "5.30 to 9.00"]

###

Target: human TRPA1 (Homo sapiens, UniProt O75762)
Construct: expressed in transfected cells
Assay: Cell-based functional intracellular calcium ([Ca2+]i) assay, Fluo-4/Fluo-8, FlexStation, challenge with reference TRPA1 agonist (FFA, AITC or 4-HNE)
Conditions: HEK293 cells expressing human TRPA1; IC50 class after addition of reference TRPA1 agonist (FFA, AITC or 4-HNE); read-out: human TRPA1-HEK Activity
Hi there, I'd appreciate the recorded IC50 for every entry that follows.

Sample records with IC50:
- Molecule: "O=C(c1nn(-c2cc(F)c(F)c(F)c2)c(-c2cccnc2)c1Br)N1CCC(n2c(=O)[nH]c3ccc(F)c(F)c32)CC1"
  IC50: "0.001 to 5 µM"
- Molecule: "N#Cc1cccc2[nH]c(=O)n(C3CCN(C(=O)c4cc(-c5cccnc5)n(-c5ccc(C(F)(F)F)c(F)c5)n4)CC3)c12"
  IC50: "> 25 µM"
- Molecule: "O=C(c1cc(-c2ccncc2)n(-c2ccc(F)c(F)c2)n1)N1CCC2(CC1)C(=O)NCN2c1ccccc1"
  IC50: "5 to 25 µM"
- Molecule: "N#Cc1c(F)ccc2[nH]c(=O)n(C3CCN(C(=O)c4cc(-c5cccnc5)n(-c5cc(F)c(F)c(F)c5)n4)CC3)c12"
  IC50: "0.001 to 5 µM"

Let us move to another entry and its IC50.
Which IC50 reading was recorded for the molecule CC1CN(C(=O)c2cc(-c3cccnc3)n(-c3cc(F)c(F)c(F)c3)n2)CC(C)C1n1c(=O)[nH]c2ccc(F)c(F)c21 (centres unmarked) ?
> 25 µM

###

Target: human TRPA1 (Homo sapiens, UniProt O75762)
Construct: expressed in transfected cells
Assay: Cell-based functional intracellular calcium ([Ca2+]i) assay, Fluo-4/Fluo-8, FlexStation, challenge with reference TRPA1 agonist (FFA, AITC or 4-HNE)
Conditions: HEK293 cells expressing human TRPA1; IC50 class after addition of reference TRPA1 agonist (FFA, AITC or 4-HNE); read-out: human TRPA1-HEK Activity
Description: A stable HEK293 cell line that expresses human TRPA1 in an inducible manner was employed in this assay. […] The expression of TRPA1 was induced by including 1 μg/ml doxycycline in the culture medium. […] Fluorescence changes were measured using a fluid handling integrated fluorescence plate reader, FlexStation (Molecular Devices, Sunnyvale, Calif.). […]
pIC50: −log10 of the molar value.
Endpoint Name: pIC50

Please review the entries below; each comes with its answer.
- Smiles Structure: "N#Cc1cc(C(F)(F)F)ccc1-n1nc(C(=O)N2CCC(n3c(=O)[nH]c4ccc(F)c(F)c43)CC2)cc1-c1cccnc1"
  pIC50: "< 4.60"
- Smiles Structure: "N#Cc1ccc2[nH]c(=O)n(C3CCN(C(=O)c4cc(-c5cccnc5)n(-c5ccc(C(F)(F)F)c(F)c5)n4)CC3)c2c1"
  pIC50: "5.30 to 9.00"
- Smiles Structure: "O=C(c1cc(-c2cccnc2)n(-c2ccc(I)cc2)n1)N1CCC(n2c(=O)[nH]c3ccc(F)c(F)c32)CC1"
  pIC50: "5.30 to 9.00"

Now let's try a different one.
Recorded pIC50 for Cn1c(=O)n(C2CCN(C(=O)c3cc(-c4ccncc4)n(-c4ccc(C(F)(F)F)cc4)n3)CC2)c2ccccc21 , please?
< 4.60

###

Biological target: human TRPA1 (Homo sapiens, UniProt O75762)
Construct: expressed in transfected cells
Experiment: Cell-based functional intracellular calcium ([Ca2+]i) assay, Fluo-4/Fluo-8, FlexStation, challenge with reference TRPA1 agonist (FFA, AITC or 4-HNE)
Settings: HEK293 cells expressing human TRPA1; IC50 class after addition of reference TRPA1 agonist (FFA, AITC or 4-HNE); read-out: human TRPA1-HEK Activity
pIC50: −log10 of the molar value.
Please go through the items and note down their pIC50.

The following molecules have reported results that may help.
- Molecule: "O=C(c1cc(-c2ccncc2)n(-c2ccc(C(F)(F)F)c(F)c2)n1)N1CCC2(CC1)C(=O)NCN2c1ccc(F)cc1 [Compound 99]"
  pIC50: "5.30 to 9.00"
- Molecule: "O=C(c1cc(-c2cccnc2)n(-c2c(Cl)cc(C(F)(F)F)cc2Cl)n1)N1CCC2(CC1)C(=O)NCN2c1ccc(F)c(F)c1 [Compound 219]"
  pIC50: "5.30 to 9.00"

Here's the next entry for you.
Data request, read-out pIC50, for N#Cc1cc2[nH]c(=O)n(C3CCN(C(=O)c4cc(-c5cccnc5)n(-c5ccc(C(F)(F)F)c(F)c5)n4)CC3)c2cc1F [Compound 234]
5.30 to 9.00

###

Target: human TRPA1 (Homo sapiens, UniProt O75762)
Construct: expressed in transfected cells
Experiment: Cell-based functional intracellular calcium ([Ca2+]i) assay, Fluo-4/Fluo-8, FlexStation, challenge with reference TRPA1 agonist (FFA, AITC or 4-HNE)
Conditions: HEK293 cells expressing human TRPA1; IC50 class after addition of reference TRPA1 agonist (FFA, AITC or 4-HNE); read-out: human TRPA1-HEK Activity
pIC50: −log10 of the molar value.
Endpoint Name: pIC50

Recorded pIC50, per entry:
- Smiles Structure: "O=C(c1cc(-c2ccc(Cl)nc2)n(-c2ccc(C(F)(F)F)c(F)c2)n1)N1CCC(n2c(=O)[nH]c3ccc(F)c(F)c32)CC1"
  Endpoint Name: "pIC50"
  Observed Measurement: "5.30 to 9.00"
- Smiles Structure: "O=C(c1cc(-c2ccncc2)n(-c2cnccn2)n1)N1CCC2(CC1)NCN(c1ccccc1)C2=O"
  Endpoint Name: "pIC50"
  Observed Measurement: "< 4.60"

Any idea what its pIC50 is? The molecule is N#Cc1ccc2[nH]c(=O)n(C3CCN(C(=O)c4cc(-c5cccnc5)n(-c5ccc(F)c(C(F)(F)F)c5)n4)CC3)c2c1
5.30 to 9.00
